Biological target: SERT F556R (Homo sapiens, UniProt P31645, F556R)
Test: [3H]5-HT uptake in intact COS-7 cells
Details: SERT F556R
endpoint: pKi
The scale used: pKi is minus the common logarithm of the concentration in molar units.

Ask: Identify pKi associated with the compound NC(=O)c1ccc2c(c1)CO[C@@]2(CCCN1CCC(c2ccc3ccc(=O)[nH]c3c2)CC1)c1ccc(F)cc1 [Lu AF60097]
Reply: 6.59

====

Target: SERT F556L (Homo sapiens, UniProt P31645, F556L)
Experiment: [3H]IMI dissociation rate assay
Conditions: SERT F556L (TM11); read-out: Lu AF60097 allosteric potency ([^3H]IMI dissociation IC50)
endpoint: IC50 (nM)
Write it as a number; the unit nM goes unstated.

Ask: Annotate the molecule "NC(=O)c1ccc2c(c1)CO[C@@]2(CCCN1CCC(c2ccc3ccc(=O)[nH]c3c2)CC1)c1ccc(F)cc1" with its measured IC50.
Reply: 330
